# System: Rhizoctonia solani
# assay_remarks: In vitro fungicidal activity, growth inhibition of ground fungal mycelia (RHIZSO)
# Type: cell-based
# measurement_context: 3-4 days at 21° C., averaged when more than one test, read-out: Growth inhibition rating, RHIZSO
value_type: inhibition at 25 ppm

compound=CCOCn1c(-c2ccc(Br)o2)c(C#N)c(Br)c1C(F)(F)F val=0%
compound=N#Cc1cc(-c2ccc(Cl)s2)[nH]c1Cl val="60 to 89%"
compound=N#Cc1cc(C(F)(F)F)[nH]c1-c1cc(Br)cs1 val=0%
compound=N#Cc1cc(C(F)(F)F)[nH]c1-c1ccc(Cl)s1 val="60 to 89%"
compound=N#Cc1c(-c2ccc(Br)o2)[nH]c(C(F)(F)F)c1Br val=0%
compound=FC(F)(F)c1[nH]c(-c2ccc(Cl)cc2)cc1-c1csc(Br)c1 val="60 to 89%"
compound=O=[N+]([O-])c1c(-c2ccc(Cl)cc2)[nH]c(C(F)(F)F)c1-c1csc(Br)c1 val="30 to 59%"
compound=CCOCn1c(-c2ccc(Cl)s2)c(C#N)c(Br)c1C(F)(F)F val="30 to 59%"
compound=N#Cc1c(-c2cccs2)[nH]c(C(F)(F)F)c1Cl val="90 to 99%"
compound=N#Cc1cc(C(F)(F)F)[nH]c1-c1ccc(Br)s1 val="60 to 89%"
compound=N#Cc1cc(C(F)(F)F)[nH]c1-c1ccc(Br)o1 val="30 to 59%"
compound=N#Cc1c(-c2cc(Br)c(Br)s2)[nH]c(C(F)(F)F)c1Br val=0%
compound=N#Cc1c(Cl)[nH]c(-c2ccc(Cl)s2)c1Br val="60 to 89%"
compound=CCOCn1c(-c2ccc(Br)s2)c(C#N)c(Br)c1C(F)(F)F val="30 to 59%"
compound=N#Cc1c(-c2ccc(Cl)s2)[nH]c(C(F)(F)F)c1Br val="60 to 89%"
compound=N#Cc1c(-c2oc3ccccc3c2Cl)[nH]c(Cl)c1Cl val="1 to 29%"
compound=O=[N+]([O-])c1ccc(-c2c(C(F)(F)F)[nH]c(-c3ccc(Cl)cc3)c2[N+](=O)[O-])s1 val="90 to 99%"

----------
# Tested on: Puccinia recondita f. sp. tritici
# assay_remarks: In vivo fungicidal activity on host plants, Wheat Leaf Rust (WLR)
# measurement_context: 400 ppm; sprayed on host plants before inoculation
# Disease control rating, WLR annotations
value_type: Disease control rating, WLR

compound=N#Cc1cc(C(F)(F)F)[nH]c1-c1cccs1 value_type="Disease control rating, WLR" val="9 (100)"
compound=N#Cc1c(Cl)[nH]c(-c2ccc(Cl)s2)c1Br value_type="Disease control rating, WLR" val="7 (90-95)"
compound=FC(F)(F)c1[nH]c(-c2ccc(Cl)cc2)cc1-c1ccco1 value_type="Disease control rating, WLR" val="6 (75-89)"
compound=O=[N+]([O-])c1ccc(-c2c(C(F)(F)F)[nH]c(-c3ccc(Cl)cc3)c2[N+](=O)[O-])s1 value_type="Disease control rating, WLR" val="6 (75-89)"
compound=N#Cc1c(-c2ccc(Br)s2)[nH]c(C(F)(F)F)c1Br value_type="Disease control rating, WLR" val="9 (100)"
compound=O=[N+]([O-])c1c(-c2ccc(Cl)cc2)[nH]c(C(F)(F)F)c1-c1csc(Br)c1 value_type="Disease control rating, WLR" val="7 (90-95)"
compound=N#Cc1cc(-c2ccc(Cl)s2)[nH]c1Cl value_type="Disease control rating, WLR" val="6 (75-89)"
compound=N#Cc1c(-c2oc3ccccc3c2Cl)[nH]c(Cl)c1Cl value_type="Disease control rating, WLR" val="2 (15-29)"
compound=FC(F)(F)c1[nH]c(-c2ccc(Cl)cc2)cc1-c1csc(Br)c1 value_type="Disease control rating, WLR" val="0 (0)"
